Reference source: patent US12433953B2

Biological target: EGFR Fab
Experiment: ELISA binding of peptides to EGFR Fab
Details: read-out: EC50 for peptide binding to αEGFR Fab; Table 16
pEC50: −log10 of the molar value.
valueKind: pEC50

{"molecule": "CC(C)C[C@@H]1NC(=O)[C@H](CCC(N)=O)NC(=O)CNC(=O)[C@H](CCCNC(=N)N)NC(=O)[C@H](CCC(N)=O)NC(=O)[C@H](Cc2c[nH]c3ccccc23)NC(=O)[C@H](C(C)C)NC(=O)[C@H](CO)NC(=O)[C@H](CC(N)=O)NC(=O)[C@@H](NC(=O)[C@@H](N)Cc2ccc(O)cc2)CSSC[C@@H](C(=O)O)NC(=O)[C@H](Cc2c[nH]c3ccccc23)NC(=O)[C@H](Cc2ccc(O)cc2)NC1=O [Peptide-15]", "valueKind": "pEC50", "numericResult": 8.15}
{"molecule": "CSCC[C@@H]1NC(=O)[C@H](Cc2c[nH]cn2)NC(=O)[C@H](CO)NC(=O)[C@@H](NC(=O)[C@@H](N)CCC(=O)O)CSSC[C@@H](C(=O)N[C@@H](CO)C(=O)O)NC(=O)[C@H](CC(C)C)NC(=O)[C@@H]2CCCN2C(=O)[C@H](Cc2c[nH]c3ccccc23)NC(=O)[C@H](CCCNC(=N)N)NC(=O)[C@H]([C@@H](C)O)NC(=O)CNC(=O)[C@H](CCC(=O)O)NC1=O [Peptide-16]", "valueKind": "pEC50", "numericResult": 7.47}

----------
Biological target: EGFR Fab binding to the EGFR antigen
Assay: ELISA competitive inhibition of EGFR Fab binding to EGFR antigen
Details: Table 20, peptide-8 alanine scanning mutants; read-out: IC50
valueKind: IC50 (µM)

{"compound": "CC[C@H](C)[C@@H]1NC(=O)[C@H](Cc2c[nH]cn2)NC(=O)[C@H](CO)NC(=O)[C@H](C)NC(=O)[C@@H](NC(=O)[C@@H]2CCCN2)CSSC[C@@H](C(=O)N[C@H](C(=O)O)C(C)C)NC(=O)[C@H]([C@@H](C)CC)NC(=O)[C@@H]2CCCN2C(=O)[C@H](CCCCN)NC(=O)[C@H](C)NC(=O)[C@H](C(C)C)NC(=O)[C@H](CC(=O)O)NC1=O [Peptide-18]", "comparator": "=", "numericResult": 5.6}
{"compound": "CC[C@H](C)[C@@H]1NC(=O)[C@H](Cc2c[nH]cn2)NC(=O)[C@H](C)NC(=O)[C@H](CCCNC(=N)N)NC(=O)[C@@H](NC(=O)[C@@H]2CCCN2)CSSC[C@@H](C(=O)N[C@H](C(=O)O)C(C)C)NC(=O)[C@H]([C@@H](C)CC)NC(=O)[C@@H]2CCCN2C(=O)[C@H](CCCCN)NC(=O)[C@H](C)NC(=O)[C@H](C(C)C)NC(=O)[C@H](CC(=O)O)NC1=O [Peptide-19]", "comparator": "=", "numericResult": 93}
{"compound": "CC[C@H](C)[C@@H]1NC(=O)[C@@H]2CCCN2C(=O)[C@H](CCCCN)NC(=O)[C@H](C)NC(=O)[C@H](C(C)C)NC(=O)[C@H](CC(=O)O)NC(=O)[C@H](C)NC(=O)[C@H](Cc2c[nH]cn2)NC(=O)[C@H](CO)NC(=O)[C@H](CCCNC(=N)N)NC(=O)[C@@H](NC(=O)[C@@H]2CCCN2)CSSC[C@@H](C(=O)N[C@H](C(=O)O)C(C)C)NC1=O [Peptide-21]", "comparator": "=", "numericResult": 1.95}
{"compound": "CC[C@H](C)[C@@H]1NC(=O)[C@H](Cc2c[nH]cn2)NC(=O)[C@H](CO)NC(=O)[C@H](CCCNC(=N)N)NC(=O)[C@@H](NC(=O)[C@@H]2CCCN2)CSSC[C@@H](C(=O)N[C@H](C(=O)O)C(C)C)NC(=O)[C@H]([C@@H](C)CC)NC(=O)[C@@H]2CCCN2C(=O)[C@H](CCCCN)NC(=O)[C@H](C)NC(=O)[C@H](C(C)C)NC(=O)[C@H](C)NC1=O [Peptide-22]", "comparator": ">", "numericResult": 100}
{"compound": "CC[C@H](C)[C@@H]1NC(=O)[C@H](Cc2c[nH]cn2)NC(=O)[C@H](CO)NC(=O)[C@H](CCCNC(=N)N)NC(=O)[C@@H](NC(=O)[C@H](C)N)CSSC[C@@H](C(=O)N[C@H](C(=O)O)C(C)C)NC(=O)[C@H]([C@@H](C)CC)NC(=O)[C@@H]2CCCN2C(=O)[C@H](CCCCN)NC(=O)[C@H](C)NC(=O)[C@H](C(C)C)NC(=O)[C@H](CC(=O)O)NC1=O [Peptide-17]", "comparator": "=", "numericResult": 16}
{"compound": "CC[C@H](C)[C@@H]1NC(=O)[C@H](C)NC(=O)[C@H](CO)NC(=O)[C@H](CCCNC(=N)N)NC(=O)[C@@H](NC(=O)[C@@H]2CCCN2)CSSC[C@@H](C(=O)N[C@H](C(=O)O)C(C)C)NC(=O)[C@H]([C@@H](C)CC)NC(=O)[C@@H]2CCCN2C(=O)[C@H](CCCCN)NC(=O)[C@H](C)NC(=O)[C@H](C(C)C)NC(=O)[C@H](CC(=O)O)NC1=O [Peptide-20]", "comparator": "=", "numericResult": 11}

----------
Molecular target: EGFR Fab
Assay: ELISA binding of peptides to EGFR Fab
Details: read-out: EC50 for peptide binding to αEGFR Fab; Table 25, peptide-8 optimization
Below is a list of entries, each paired with its recorded EC50 value.

{"compound": "CC[C@H](C)[C@@H]1NC(=O)[C@@H]2CCCN2C(=O)[C@H](CCCCN)NC(=O)[C@H](C)NC(=O)[C@H]([C@@H](C)O)NC(=O)[C@H](CC(=O)O)NC(=O)[C@H](Cc2ccccc2)NC(=O)[C@H](Cc2c[nH]cn2)NC(=O)[C@H](CO)NC(=O)[C@H]([C@@H](C)O)NC(=O)[C@@H](NC(=O)[C@@H]2CCCN2)CSSC[C@@H](C(=O)N[C@@H](C)C(=O)O)NC1=O [Peptide-39]", "EC50 / µM": 0.206}
{"compound": "CC[C@H](C)[C@@H]1NC(=O)[C@@H]2CCCN2C(=O)[C@H](CCCCN)NC(=O)[C@H](C)NC(=O)[C@@H]2CCCN2C(=O)[C@H](CC(=O)O)NC(=O)[C@H](CC(N)=O)NC(=O)[C@H](Cc2c[nH]cn2)NC(=O)[C@H](CO)NC(=O)[C@H](CC(C)C)NC(=O)[C@@H](NC(=O)[C@@H]2CCCN2)CSSC[C@@H](C(=O)N[C@@H](C)C(=O)O)NC1=O [Peptide-41]", "EC50 / µM": 0.292}
{"compound": "CC[C@H](C)[C@@H]1NC(=O)[C@@H]2CCCN2C(=O)[C@H](CCCCN)NC(=O)[C@H](C)NC(=O)[C@@H]2CCCN2C(=O)[C@H](CC(=O)O)NC(=O)[C@H](Cc2ccccc2)NC(=O)[C@H](Cc2c[nH]cn2)NC(=O)[C@H](Cc2ccccc2)NC(=O)[C@H](CC(C)C)NC(=O)[C@@H](NC(=O)[C@@H]2CCCN2)CSSC[C@@H](C(=O)N[C@@H](CO)C(=O)O)NC1=O [Peptide-46, PCLFHFDPAKPICS]", "EC50 / µM": 0.0049}
{"compound": "CC[C@H](C)[C@@H]1NC(=O)[C@@H]2CCCN2C(=O)[C@H](CCCCN)NC(=O)[C@H](C)NC(=O)[C@@H]2CCCN2C(=O)[C@H](CC(=O)O)NC(=O)[C@H](CC(N)=O)NC(=O)[C@H](Cc2c[nH]cn2)NC(=O)[C@H](Cc2ccc(O)cc2)NC(=O)[C@H](C)NC(=O)[C@@H](NC(=O)[C@@H]2CCCN2)CSSC[C@@H](C(=O)N[C@@H](CO)C(=O)O)NC1=O [Peptide-45, PCAYHNDPAKPICS]", "EC50 / µM": 0.0103}

----------
Target: EGFR Fab binding to the EGFR antigen
Assay: ELISA competitive inhibition of EGFR Fab binding to EGFR antigen
Conditions: read-out: IC50 for peptide inhibition of αEGFR Fab binding to EGFR antigen; Table 27, peptide-8 optimization

{"compound": "CC[C@H](C)[C@@H]1NC(=O)[C@@H]2CCCN2C(=O)[C@H](CCCCN)NC(=O)[C@H](C)NC(=O)[C@H]([C@@H](C)O)NC(=O)[C@H](CC(=O)O)NC(=O)[C@H](Cc2ccccc2)NC(=O)[C@H](Cc2c[nH]cn2)NC(=O)[C@H](CO)NC(=O)[C@H]([C@@H](C)O)NC(=O)[C@@H](NC(=O)[C@@H]2CCCN2)CSSC[C@@H](C(=O)N[C@@H](C)C(=O)O)NC1=O [Peptide-39]", "IC50 (nM)": 2790}
{"compound": "CC[C@H](C)[C@@H]1NC(=O)[C@@H]2CCCN2C(=O)[C@H](CCCCN)NC(=O)[C@H](C)NC(=O)[C@@H]2CCCN2C(=O)[C@H](CC(=O)O)NC(=O)[C@H](CC(N)=O)NC(=O)[C@H](Cc2c[nH]cn2)NC(=O)[C@H](Cc2ccc(O)cc2)NC(=O)[C@H](C)NC(=O)[C@@H](NC(=O)[C@@H]2CCCN2)CSSC[C@@H](C(=O)N[C@@H](CO)C(=O)O)NC1=O [Peptide-45, PCAYHNDPAKPICS]", "IC50 (nM)": 543}
{"compound": "CC[C@H](C)[C@@H]1NC(=O)[C@@H]2CCCN2C(=O)[C@H](CCCCN)NC(=O)[C@H](C)NC(=O)[C@H](CC(C)C)NC(=O)[C@H](CC(=O)O)NC(=O)[C@H](Cc2ccc(O)cc2)NC(=O)[C@H](Cc2c[nH]cn2)NC(=O)[C@H](CO)NC(=O)[C@H](CC(N)=O)NC(=O)[C@@H](NC(=O)[C@@H]2CCCN2)CSSC[C@@H](C(=O)N[C@H](C(=O)O)[C@@H](C)O)NC1=O [Peptide-43]", "IC50 (nM)": 4230}
